Kindly supply the reported PER2::LUC luminescence values for the records listed here.
Tested on: mPer2Luc MEF
Assay Summary: PER2::LUC luminescence relative to vehicle control (fold of vehicle); higher = higher PER2::LUC reporter signal
Measurement Conditions: time after treatment 24 h; 10 µM
The full ranking holds about 5,300 compounds; the median of “PER2::LUC luminescence relative to vehicle control” is about 0.96, and the highest 2% start at about 1.3. For the sample, the highest values were picked, then their nearest neighbours and some compounds at random.

Problem: Quick one: PER2::LUC luminescence for CC(C)C[C@H](N)C(=O)N[C@H](C(=O)N[C@H](C(=O)N[C@@H](Cc1ccc(O)cc1)C(=O)N1CCC[C@H]1C(=O)N[C@@H](Cc1c[nH]c2ccccc12)C(=O)N[C@H](C(=O)N[C@@H](CCC(N)=O)C(=O)N[C@@H](CCCN=C(N)N)C(=O)O)[C@@H](C)O)C(C)C)C(C)C ?
Result: 0.942

Problem: Quick one: PER2::LUC luminescence for CC1(C)[C@@H](O)CC[C@]2(C)[C@H]3C(=O)C=C4[C@H]5C[C@@](C)(C(=O)O)CC[C@]5(C)CC[C@@]4(C)[C@]3(C)CC[C@@H]12 ?
Result: 0.97

Problem: Quick one: PER2::LUC luminescence for CC[C@H](CC[C@@H](C)[C@H]1CC[C@H]2[C@@H]3CC=C4C[C@@H](OC(C)=O)CC[C@]4(C)[C@H]3CC[C@]12C)C(C)C ?
Result: 1.04

Problem: Quick one: PER2::LUC luminescence for CNC(=O)[C@H]1O[C@@H](n2cnc3c(N)ncnc32)[C@H](O)[C@@H]1O ?
Result: 1.11

----------
System: mPer2Luc MEF
Assay Summary: PER2::LUC luminescence relative to vehicle control (fold of vehicle); higher = higher PER2::LUC reporter signal
Measurement Conditions: time after treatment 24 h; 10 µM
In all, about 5,300 compounds were measured (“PER2::LUC luminescence relative to vehicle control”: median about 0.96, highest 2% from about 1.3 on). The sample holds the highest values, similar compounds and a random draw of the others, so the mix is not that of the screen.
Endpoint: PER2::LUC luminescence
Please state the value as a number alone, without comment.

Problem: Quick one: PER2::LUC luminescence for Cc1o[nH]c(=O)c1CCC(N)C(=O)O (centres undefined) ?
Result: 0.959

Problem: Quick one: PER2::LUC luminescence for O=c1c(-c2ccc(O)cc2)coc2cc(O[C@@H]3O[C@H](CO)[C@@H](O)[C@H](O)[C@H]3O)ccc12 ?
Result: 1.25

Problem: Quick one: PER2::LUC luminescence for COc1ccccc1-c1coc2cc(O)ccc2c1=O ?
Result: 1.14

Problem: Quick one: PER2::LUC luminescence for O=c1c(-c2ccc(O)cc2)coc2cc(O[C@@H]3O[C@H](CO)[C@@H](O)[C@H](O)[C@H]3O)cc(O)c12 ?
Result: 1.3

Problem: Quick one: PER2::LUC luminescence for COc1ccc2c(=O)c(CC(=O)O)coc2c1 ?
Result: 0.908

Problem: Quick one: PER2::LUC luminescence for C/C=C\c1ccc(OC)cc1 ?
Result: 1

Problem: Quick one: PER2::LUC luminescence for C[C@]12CC[C@@H]3c4ccc(O)cc4CC[C@H]3[C@@H]1C[C@H](O)[C@@H]2O ?
Result: 1.07

Problem: Quick one: PER2::LUC luminescence for CC(C)Oc1ccc2c(=O)c(-c3ccccc3)coc2c1 ?
Result: 1.9

Problem: Quick one: PER2::LUC luminescence for COC(=O)c1ccc2c(c1)nc(NC(=O)c1ccccc1)n2CCCc1ccccc1 ?
Result: 1.09

Problem: Quick one: PER2::LUC luminescence for COc1ccc([C@@H]2OC[C@@H]3[C@H]2CO[C@H]3c2ccc(OC)c(OC)c2)cc1OC ?
Result: 1.05

Problem: Quick one: PER2::LUC luminescence for O=c1cnn([C@@H]2O[C@H](CO)[C@@H](O)[C@H]2O)c(=O)[nH]1 ?
Result: 1.41

Problem: Quick one: PER2::LUC luminescence for CCOC(=O)C1=Cc2ccc(C(F)(F)C(F)(F)F)cc2N=C(N)C1 ?
Result: 1.07

Problem: Quick one: PER2::LUC luminescence for O=c1cc(-c2ccc(O)c(O[C@@H]3O[C@H](CO)[C@@H](O)[C@H](O)[C@H]3O)c2)oc2cc(O[C@@H]3O[C@H](CO)[C@@H](O)[C@H](O)[C@H]3O)cc(O)c12 ?
Result: 1.07

Problem: Quick one: PER2::LUC luminescence for CC1=C([C@@H]2C=C3[C@@H](CC[C@]4(C)[C@@H]([C@H](C)CCCC(C)C)CC[C@@H]34)n3c(=O)n(-c4ccccc4)c(=O)n32)C[C@@H](O)C[C@@H]1O ?
Result: 0.94

Problem: Quick one: PER2::LUC luminescence for C[C@@]1(F)[C@H](O)[C@@H](CO)O[C@H]1n1ccc(=O)[nH]c1=O ?
Result: 0.965

Problem: Quick one: PER2::LUC luminescence for C[C@@H]1CCNC(=O)c2cc3ccc(C(=O)Nc4nc5ccccc5n4CCCN(C)C)cc3n21 ?
Result: 0.548

Problem: Quick one: PER2::LUC luminescence for O=Nc1c(O)[nH]c2c(Cl)c(Cl)ccc12 ?
Result: 1.05

Problem: Quick one: PER2::LUC luminescence for CCC[C@@H]1C[C@@H](C(=O)N[C@@H]([C@H]2O[C@H](SC)[C@H](OP(=O)(O)O)[C@@H](O)[C@H]2O)[C@H](C)Cl)N(C)C1 ?
Result: 1.07

Problem: Quick one: PER2::LUC luminescence for O=C(Nc1nc2ccccc2n1CCN1CCOCC1)c1cccc([N+](=O)[O-])c1 ?
Result: 1.36
